# TARGET_ENTITY: hNKCC1A (Homo sapiens, UniProt P55011)
# Construct: Full-length NKCC1 (NKCC1A) comprises ~1200 amino acids; expressed in transfected cells; host or cells: Xenopus laevis oocytes injected with cRNA (pXOOM vector)
# Sequence (P55011 1-1212): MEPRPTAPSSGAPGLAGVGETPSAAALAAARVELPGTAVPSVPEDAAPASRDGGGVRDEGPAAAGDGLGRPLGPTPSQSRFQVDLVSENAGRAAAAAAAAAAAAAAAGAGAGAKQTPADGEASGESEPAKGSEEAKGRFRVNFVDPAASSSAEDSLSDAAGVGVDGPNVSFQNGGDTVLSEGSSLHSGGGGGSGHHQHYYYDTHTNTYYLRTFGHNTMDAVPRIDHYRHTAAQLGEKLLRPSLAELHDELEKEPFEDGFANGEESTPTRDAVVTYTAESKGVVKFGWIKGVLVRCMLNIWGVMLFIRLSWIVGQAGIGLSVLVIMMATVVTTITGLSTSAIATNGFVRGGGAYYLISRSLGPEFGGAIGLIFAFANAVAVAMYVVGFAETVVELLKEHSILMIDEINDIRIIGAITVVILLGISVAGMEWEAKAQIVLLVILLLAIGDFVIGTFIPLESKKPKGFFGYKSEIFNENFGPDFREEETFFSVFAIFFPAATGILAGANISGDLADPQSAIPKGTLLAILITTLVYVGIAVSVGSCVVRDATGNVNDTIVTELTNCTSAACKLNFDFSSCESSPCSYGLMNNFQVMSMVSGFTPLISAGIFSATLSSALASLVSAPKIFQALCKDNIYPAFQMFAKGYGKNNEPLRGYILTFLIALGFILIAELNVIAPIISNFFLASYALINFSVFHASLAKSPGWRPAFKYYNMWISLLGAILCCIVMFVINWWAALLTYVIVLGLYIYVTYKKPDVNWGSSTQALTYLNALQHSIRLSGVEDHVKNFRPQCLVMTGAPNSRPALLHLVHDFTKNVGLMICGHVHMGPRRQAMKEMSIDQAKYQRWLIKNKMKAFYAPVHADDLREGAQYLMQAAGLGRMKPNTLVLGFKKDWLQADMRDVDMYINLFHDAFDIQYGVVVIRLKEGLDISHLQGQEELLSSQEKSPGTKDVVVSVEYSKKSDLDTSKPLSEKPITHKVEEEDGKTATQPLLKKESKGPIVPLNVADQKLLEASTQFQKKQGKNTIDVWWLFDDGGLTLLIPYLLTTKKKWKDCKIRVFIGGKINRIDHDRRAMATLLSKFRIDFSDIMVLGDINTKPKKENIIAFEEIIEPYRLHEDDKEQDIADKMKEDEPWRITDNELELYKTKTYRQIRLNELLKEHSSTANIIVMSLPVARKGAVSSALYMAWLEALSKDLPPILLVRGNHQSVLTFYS
# MEASUREMENT_PROTOCOL: 86Rb+ uptake in hNKCC1A-expressing Xenopus laevis oocytes
# Format: cell-based
# EXPERIMENTAL_SETUP: ratio of IC50s
METRIC: Ratio hNKCC1A/ hNKCC1B
Respond with the number and no other words.

Past entries and their recorded results:
q: # query: Ratio hNKCC1A/ hNKCC1B of entry Cc1cccc(Nc2ccncc2S(=O)(=O)NC(=O)NC(C)C)c1 [Torasemide]
a: 0.755

q: Consider next the molecule O=C(O)COc1ccc(C(=O)c2cccs2)c(Cl)c1Cl [Ticrynafen] in the same way.
a: 0.275

q: Consider next the molecule NS(=O)(=O)c1cc(C(=O)O)cc(N2CCCC2)c1Oc1ccccc1 [Piretanide] in the same way.
a: 2.02

New cases:
q: # query: Ratio hNKCC1A/ hNKCC1B of entry NS(=O)(=O)c1cc(-c2nnn[nH]2)c(NCc2cccs2)cc1Cl [Azosemide]
a: 1.25

###

# TARGET_ENTITY: hNKCC1A (Homo sapiens, UniProt P55011)
# Construct: Full-length NKCC1 (NKCC1A) comprises ~1200 amino acids; expressed in transfected cells; host or cells: Xenopus laevis oocytes injected with cRNA (pXOOM vector)
# MEASUREMENT_PROTOCOL: 86Rb+ uptake in hNKCC1A-expressing Xenopus laevis oocytes
# Type: cell-based
# EXPERIMENTAL_SETUP: 86Rb+ uptake, Xenopus oocytes, 5 min, corrected for uninjected oocytes; median and range of 3–7 experiments
Field: label. Allowed values: 1 (IC50 < 6 µM) or 0 (IC50 >= 6 µM).

Illustrative cases are given below, each with its answer.
q: Is 6 µM strictly greater than the compound's reported IC50? compound: C=C(CC)C(=O)c1ccc(OCC(=O)O)c(Cl)c1Cl
a: 0

q: Consider next the compound CCCCNc1cc(C(=O)O)cc(S(N)(=O)=O)c1Oc1ccccc1 [Bumetanide] in the same way.
a: 1

q: Consider next the compound NS(=O)(=O)c1cc(-c2nnn[nH]2)c(NCc2cccs2)cc1Cl [Azosemide] in the same way.
a: 1

q: Consider next the compound Cc1cccc(C)c1NC(=O)c1cc(S(N)(=O)=O)c(Cl)cc1O [Xipamide] in the same way.
a: 0

q: Consider next the compound NS(=O)(=O)c1cc(C(=O)NN2CC3C4CCC(C4)C3C2)ccc1Cl (stereo not drawn) [Tripamide] in the same way.
a: 0

New cases:
q: Is 6 µM strictly greater than the compound's reported IC50? compound: O=C(O)COc1ccc(C(=O)c2cccs2)c(Cl)c1Cl
a: 0

q: Consider next the compound COc1ccc(Cl)cc1C(=O)NCCc1ccc(S(=O)(=O)NC(=O)NC2CCCCC2)cc1 [Glybenclamide] in the same way.
a: 0

q: Consider next the compound NS(=O)(=O)c1cc(C(=O)O)cc(N2CCCC2)c1Oc1ccccc1 [Piretanide] in the same way.
a: 1

###

Quick list: IC50 per entry.
# TARGET_ENTITY: hNKCC1B (Homo sapiens)
# Construct: expressed in transfected cells; host or cells: Xenopus laevis oocytes injected with cRNA (pXOOM vector)
# Sequence (P55011 1-1196 isoform P55011-3): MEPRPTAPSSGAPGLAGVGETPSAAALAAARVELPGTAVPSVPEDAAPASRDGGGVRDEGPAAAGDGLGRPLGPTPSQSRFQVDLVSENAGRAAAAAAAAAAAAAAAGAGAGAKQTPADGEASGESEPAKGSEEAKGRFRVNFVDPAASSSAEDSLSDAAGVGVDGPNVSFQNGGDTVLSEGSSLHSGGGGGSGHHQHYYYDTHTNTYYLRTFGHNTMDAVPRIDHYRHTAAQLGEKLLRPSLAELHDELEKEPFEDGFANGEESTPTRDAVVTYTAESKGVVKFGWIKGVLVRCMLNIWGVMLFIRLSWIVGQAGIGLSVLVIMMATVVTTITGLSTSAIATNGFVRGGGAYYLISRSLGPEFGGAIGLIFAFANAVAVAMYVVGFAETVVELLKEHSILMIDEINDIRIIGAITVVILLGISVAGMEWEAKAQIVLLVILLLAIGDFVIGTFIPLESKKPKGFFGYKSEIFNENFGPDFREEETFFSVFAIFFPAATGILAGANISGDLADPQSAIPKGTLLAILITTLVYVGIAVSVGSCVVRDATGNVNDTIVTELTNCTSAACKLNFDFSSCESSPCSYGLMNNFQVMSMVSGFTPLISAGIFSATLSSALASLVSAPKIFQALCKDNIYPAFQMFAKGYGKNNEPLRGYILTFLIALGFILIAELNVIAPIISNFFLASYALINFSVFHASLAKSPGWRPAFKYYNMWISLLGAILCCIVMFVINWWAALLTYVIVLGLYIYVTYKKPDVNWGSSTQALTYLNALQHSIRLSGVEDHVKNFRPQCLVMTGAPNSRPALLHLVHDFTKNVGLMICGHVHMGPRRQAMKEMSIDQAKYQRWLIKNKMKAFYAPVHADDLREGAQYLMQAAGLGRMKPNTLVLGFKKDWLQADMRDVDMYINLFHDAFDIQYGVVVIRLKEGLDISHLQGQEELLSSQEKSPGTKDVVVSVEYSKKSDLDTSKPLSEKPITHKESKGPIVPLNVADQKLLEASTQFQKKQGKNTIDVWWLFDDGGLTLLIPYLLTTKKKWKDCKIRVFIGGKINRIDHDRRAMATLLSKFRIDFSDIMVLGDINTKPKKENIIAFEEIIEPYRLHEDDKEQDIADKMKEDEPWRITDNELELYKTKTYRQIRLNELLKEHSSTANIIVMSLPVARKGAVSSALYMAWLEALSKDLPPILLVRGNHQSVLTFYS
# MEASUREMENT_PROTOCOL: 86Rb+ uptake in hNKCC1B-expressing Xenopus laevis oocytes
# Format: cell-based
# EXPERIMENTAL_SETUP: 5 min, corrected for uninjected oocytes, median and range of 3–7 experiments

Past entries and their recorded results:
q: # query: IC50 of entry NS(=O)(=O)c1cc(-c2nnn[nH]2)c(NCc2cccs2)cc1Cl [Azosemide]
a: 0.197 µM

q: Consider next the compound NS(=O)(=O)c1cc(C(=O)NN2CC3C4CCC(C4)C3C2)ccc1Cl (stereo not drawn) [Tripamide] in the same way.
a: > 1000 µM

q: Consider next the compound Cc1cccc(C)c1NC(=O)c1cc(S(N)(=O)=O)c(Cl)cc1O [Xipamide] in the same way.
a: > 1750 µM

q: Consider next the compound NS(=O)(=O)c1cc(C(=O)O)cc(N2CCCC2)c1Oc1ccccc1 [Piretanide] in the same way.
a: 1.66 µM

q: Consider next the compound CCCCNc1cc(C(=O)O)cc(S(N)(=O)=O)c1Oc1ccccc1 [Bumetanide] in the same way.
a: 0.842 µM

q: Consider next the compound O=C(O)COc1ccc(C(=O)c2cccs2)c(Cl)c1Cl in the same way.
a: 1780 µM

q: Consider next the compound Cc1cccc(Nc2ccncc2S(=O)(=O)NC(=O)NC(C)C)c1 [Torasemide] in the same way.
a: 8.19 µM

q: Consider next the compound COc1ccc(Cl)cc1C(=O)NCCc1ccc(S(=O)(=O)NC(=O)NC2CCCCC2)cc1 [Glybenclamide] in the same way.
a: > 100 µM

# ---- query compound ----
q: # query: IC50 of entry C=C(CC)C(=O)c1ccc(OCC(=O)O)c(Cl)c1Cl
a: 3070 µM
